Recorded composite z-score for the following molecules
Tested on: Plasmodium falciparum Sir2 (PF13_0152, Sir2A)
Assay: pfSir2 binders on small-molecule microarrays, primary screen, biochemical, small-molecule microarray, 635 nm fluorescence (AID 1098);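 further: score merges spot fluorescence intensity with its signal-to-noise ratio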
Conditions: small-molecule microarray binding, fluorescence 635 nm; higher = more signal
Respond using a number only.

{"molecule": "CCC[C@@H]1C=C(C(=O)OCC)[C@H](c2ccccc2)N1S(=O)(=O)c1ccc(C)cc1", "composite z-score": 0.58}

Field composite z-score (Plasmodium falciparum Sir2 (PF13_0152, Sir2A)), entry C=CCC(OC(C)=O)[C@@H]1[C@@H](N(Cc2cc3ccccc3o2)C(=O)c2ccc(-c3ccccc3)cc2)c2cc(OCCCO)ccc2N1C(=O)c1ccc2ccccc2n1 (stereo not given in full) : -0.148

Field composite z-score (Plasmodium falciparum Sir2 (PF13_0152, Sir2A)), entry O=C1NC(=O)C2C1C=CC(C(O)c1ccc(F)cc1)N2Nc1ccccn1 (stereo not given) : 1.06

Field composite z-score (Plasmodium falciparum Sir2 (PF13_0152, Sir2A)), entry COc1ccc(CC[C@H](O)c2cccc(OCC(=O)OC(C)(C)C)c2)cc1 : 1.16

Field composite z-score (Plasmodium falciparum Sir2 (PF13_0152, Sir2A)), entry CC(C)=CCN(C(=O)C#Cc1ccccc1)[C@H](CO)c1ccccc1 : -0.117

* * *

Experiment: small-molecule binders of probe aLefty1, primary screen, biochemical, small-molecule microarray, 635/667 nm fluorescence (AID 1153);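 further: score merges spot fluorescence with signal-to-noise ratio from the scanned slide images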
Conditions: higher = more signal
Recorded composite z-score for the following compounds
Respond using a number only.

Consider the reported composite z-score for these compounds:
{"compound": "COC(=O)[C@@]1(Cc2ccc(OC)cc2)[C@H]2c3cc(C(=O)N(C)C)n(Cc4ccsc4Br)c3C[C@H]2CN1C(=O)c1ccccc1", "experimental.endpoint": "composite z-score", "quantitative.result": 0.456}
{"compound": "C=C(COC)C(=O)CC[C@@H](OC(C)=O)c1ccc(OCCO)cc1", "experimental.endpoint": "composite z-score", "quantitative.result": -0.007}
{"compound": "C=CCOC(=O)[C@@H]1[C@H]2C(=O)O[C@H](c3ccccc3)[C@H](c3ccccc3)N2[C@H](c2ccc(OCCOC(=O)[C@H]3C[C@H]4C(=O)NCC(=O)N4[C@H]3c3ccc(O)cc3)cc2)[C@@]12C(=O)Nc1ccc(I)cc12", "experimental.endpoint": "composite z-score", "quantitative.result": -0.154}

Looking up CC(C)C[C@@H]1NC(=O)C([C@@H](C)OCc2ccccc2)NC(=O)[C@@]23C(=O)N[C@@H](Cc4ccccc4)C2[C@H](C)[C@@]2(C)O[C@H]2C3/C=C/CC/C=C/CNC1=O (stereo not given in full) , I found its composite z-score recorded as -0.164

Looking up COC(=O)c1c(CC[C@@H](CO)NC(=O)N[C@@H](Cc2ccccc2)Cn2cc(-c3cncn3C)nn2)oc(C(C)=O)c1C(=O)OC , I found its composite z-score recorded as -0.147

* * *

System: Lefty1
Assay: Lefty1 binders on small-molecule microarrays, primary screen, biochemical, small-molecule microarray, 635/667 nm fluorescence (AID 1139)
Conditions: small-molecule microarray binding, fluorescence 635/667; higher = more signal
experimental.endpoint: composite z-score

Consider the reported composite z-score for these compounds:
{"compound": "O=C1C2C=CC(C(O)C(c3ccccc3)c3ccccc3)N(Nc3ccccc3)C2C(=O)N1c1ccccc1 (stereo not drawn)", "composite z-score": 0.707}
{"compound": "COCCOC(=O)N1C(=O)[C@@]2(c3cc(C#CC4=CCCCC4)ccc31)[C@H](c1ccc(OCCO)cc1)N1[C@H](c3ccccc3)[C@H](c3ccccc3)OC(=O)[C@H]1[C@@H]2C(=O)N1CCCCCCC1", "composite z-score": 1.21}
{"compound": "Cc1ccc(F)cc1S(=O)(=O)N[C@@H]1CCN(Cc2ccc3[nH]ccc3c2)C1", "composite z-score": 0.543}
{"compound": "CCCCNC(=O)c1ccc(C#C[Si](C)(C)C)c(OC(C)=O)c1", "composite z-score": 0.479}

Looking up [N-]=[N+]=NCc1ccccc1C[C@]1(C(=O)O)COC(c2ccc(OCCCO)cc2)=N1 , I found its composite z-score recorded as -0.212

Looking up CN(C)CCCCNC(=O)[C@H]1C[C@H]2C(=O)NCC(=O)N2[C@H]1c1cccc(OCCO)c1 , I found its composite z-score recorded as 0.748

Looking up C=C(C(=O)CC[C@@H](OC(C)=O)c1cccc(OCCO)c1)C(C)C , I found its composite z-score recorded as 0.889

Looking up COCCOC(=O)N1C(=O)[C@@]2(c3ccccc31)[C@H](C(N)=O)[C@H]1C(=O)O[C@H](c3ccccc3)[C@H](c3ccccc3)N1[C@@H]2c1ccc(OCCO)cc1 , I found its composite z-score recorded as 0.619

Looking up CCOC(=O)C[C@H]1[C@H](OC(=O)c2ccc(-c3ccccc3)cc2)[C@@H](NC(=O)c2ccc3ccccc3c2)c2cc(OCCCO)ccc2N1C(=O)c1ccccc1 , I found its composite z-score recorded as 0.669

Looking up CCOC(=O)C1=CC[C@@H](c2ccccc2Cl)N(S(=O)(=O)c2ccc(C)cc2)[C@H]1c1cccc(OC)c1 , I found its composite z-score recorded as -0.0177

* * *

Assay: binders of probe aFST on microarray, primary screen, stem cell growth factor project, biochemical, small-molecule microarray, fluorescence 635/667 (AID 1086);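 further: score merges 667 nm fluorescence with signal-to-noise of each printed compound spot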
Conditions: higher = more signal
So basically: composite z-score at 0.1 or higher? That is 1.0. Lower than 0.1? That is 0.0.

Examples from the recorded data:
{"molecule": "CCOC(=O)C1=CC[C@@H](c2ccccc2Cl)N(S(=O)(=O)c2ccc(C)cc2)[C@H]1c1cccc(OC)c1", "class.name": 1.0}
{"molecule": "O=C1C2C=CC(C(O)c3ccc([N+](=O)[O-])cc3)N(Nc3ccccc3)C2C(=O)N1c1ccccc1 (configuration not stated)", "class.name": 1.0}

Ask: Check this molecule for composite z-score at or above 0.1: N#Cc1ccc(C(O)C2C=CC3C(=O)NC(=O)C3N2Nc2ccccn2)cc1 (configuration not stated)
Reply: 1.0

Ask: Check this molecule for composite z-score at or above 0.1: CCOC(=O)C1=CC[C@@H](c2ccccc2)N(S(=O)(=O)C[Si](C)(C)C)[C@H]1c1ccccc1
Reply: 1.0

Ask: Check this molecule for composite z-score at or above 0.1: CC(C)CNC(=O)[C@@H]1c2ccccc2C(=O)N(Cc2ccccc2Cl)[C@H]1c1ccc(CO)cc1
Reply: 0.0

Ask: Check this molecule for composite z-score at or above 0.1: COCCOC(=O)N1C(=O)[C@@]2(c3cc(C#Cc4ccc(OC)cc4)ccc31)[C@H](C(=O)Nc1nc3ccccc3s1)[C@H]1C(=O)O[C@H](c3ccccc3)[C@H](c3ccccc3)N1[C@@H]2c1ccccc1OCCO
Reply: 0.0

Ask: Check this molecule for composite z-score at or above 0.1: COc1ccc(C#Cc2ccc3c(c2)[C@]2(C(=O)N3)[C@H](c3ccc(OCCO)cc3)N3[C@H](c4ccccc4)[C@H](c4ccccc4)OC(=O)[C@H]3[C@@H]2C(=O)O)cc1
Reply: 1.0

* * *

Experiment: splicing luciferase reporter signal modulators, primary screen, spliceosome inhibition project, cell-based, HEK293, splice +/- reporter (AID 1101);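 further: HEK293 cells carrying a splicing-competent luciferase reporter gene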
Details: luminescence, 24 h, higher = more signal, called active from +8 up or from −8 down
Recorded z-score for the following molecules
Respond using a number only.

Consider the reported z-score for these molecules:
{"molecule": "COc1ccc(CC[C@H](O)c2cccc(OCC(=O)OC(C)(C)C)c2)cc1", "z-score": 1.3}
{"molecule": "COC(=O)Cn1c(C(=O)N(C)C)cc2c1C[C@H]1CN(C(=O)c3ccccc3)[C@@](Cc3ccc(OC)cc3)(C(=O)OC)[C@@H]21", "z-score": -4.19}
{"molecule": "O=C1C2C=CC(C(O)c3cccs3)N(Nc3ccccc3)C2C(=O)N1c1ccccc1 (centres undefined)", "z-score": -0.145}

Looking up COC(=O)c1ccc([C@H](NC(=O)c2ccccc2)[C@]2(C)C[C@H]2C2CCCCC2)cc1 , I found its z-score recorded as 0.736

* * *

Recorded composite z-score for the following compounds
System: XIP peptide (Xip251-270)
Experiment: small-molecule binders of XIP peptide, primary screen, biochemical, small-molecule microarray, fluorescence 635/667 nm, 0.5 µg/mL protein (AID 1183)
Conditions: small-molecule microarray binding, fluorescence 635 nm; higher = more signal
Respond using a number only.

{"compound": "COc1ccc(NN2C(C(O)c3ccc(OC)cc3)C=CC3C(=O)N(C4CCCCC4)C(=O)C32)cc1 (configuration not stated)", "composite z-score": 0.7}

Looking up COCCOC(=O)N1C(=O)[C@@]2(c3cc(C#CC4(O)CCCCCC4)ccc31)[C@H](c1ccccc1OCCO)N1[C@H](c3ccccc3)[C@H](c3ccccc3)OC(=O)[C@H]1[C@@H]2C(=O)N1CCCCCCC1 , I found its composite z-score recorded as 0.727

Looking up C=C(/C(=C/C[C@H](OC(=O)c1ccncc1)c1ccccc1OCCO)c1cc(C(=O)OC)ccc1OC)C(C)C , I found its composite z-score recorded as 0.605

Looking up C=CCC(OC(C)=O)[C@@H]1[C@@H](N(Cc2cccc3ccccc23)C(=O)c2cccc3ccccc23)c2cc(OCCCO)ccc2N1C(=O)Cc1ccc2ccccc2c1 (some centres not stated) , I found its composite z-score recorded as -0.716

Looking up COCCOC(=O)N1C(=O)[C@@]2(c3cc(C#CC4(O)CCCCCC4)ccc31)[C@H](C(=O)NC[C@H](O)c1ccccc1)[C@H]1C(=O)O[C@H](c3ccccc3)[C@H](c3ccccc3)N1[C@@H]2c1ccc(O)cc1 , I found its composite z-score recorded as 0.78

Looking up C=C(COC)/C(=C/C[C@H](OC(=O)c1ccncc1)c1cccc(OCCO)c1)c1cnc2ccccc2c1 , I found its composite z-score recorded as 0.823

Looking up COc1ccc(CCNC(=O)[C@@]2(Sc3ccc(C)cc3)CC(=O)N(Cc3cc(C(F)(F)F)cc(C(F)(F)F)c3)[C@@H]2c2ccc(CO)cc2)cc1 , I found its composite z-score recorded as 0.705
